Biological target: PAK4A (Homo sapiens, UniProt O96013)
Construct: purchased in-house DSF kinase panel (SGC-style construct names; the trailing letter is the construct ID)
Sequence (O96013 291-591): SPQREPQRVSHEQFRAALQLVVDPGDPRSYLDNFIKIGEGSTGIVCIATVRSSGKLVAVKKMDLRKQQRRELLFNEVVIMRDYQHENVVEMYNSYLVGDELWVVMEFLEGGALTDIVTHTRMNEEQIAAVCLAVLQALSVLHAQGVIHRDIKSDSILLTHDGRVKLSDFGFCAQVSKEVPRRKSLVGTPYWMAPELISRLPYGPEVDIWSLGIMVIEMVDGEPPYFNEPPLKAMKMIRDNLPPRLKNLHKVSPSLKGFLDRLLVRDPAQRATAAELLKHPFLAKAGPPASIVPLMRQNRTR
Experiment: DSF Tm panel
Assay type: binding
Conditions: 10 μM compound
Provide the reported ΔTm at 10 µM of each item.
Answers are plain numbers, in °C.

COc1cccc(CNC(=O)Nc2ccc3cc2OCCOCCNc2ccn4ncc-3c4n2)c1 [compound 30] ... 1.5
C[C@H](NC(=O)Nc1ccc2cc1OCCOCCNc1ccn3ncc-2c3n1)c1ccccc1 [compound 34] ... 1.4
COc1ccccc1CNC(=O)Nc1ccc2cc1OCCOCCNc1ccn3ncc-2c3n1 [compound 29] ... 1.3
COc1ccc(CNC(=O)Nc2ccc3cc2OCCOCCNc2ccn4ncc-3c4n2)cc1F [compound 32] ... 2
Cc1ccc(F)cc1CNC(=O)Nc1ccc2cc1OCCOCCNc1ccn3ncc-2c3n1 [compound 26] ... 1.8
O=C(NCc1ccccc1)Nc1ccc2cc1OCCOCCNc1ccn3ncc-2c3n1 [compound 16] ... -0.2
COc1cc(CNC(=O)Nc2ccc3cc2OCCOCCNc2ccn4ncc-3c4n2)ccc1F [compound 33] ... 2.2
Cc1cc(Br)ccc1CNC(=O)Nc1ccc2cc1OCCOCCNc1ccn3ncc-2c3n1 [compound 24] ... 1.9

For every listed record, write down its ΔTm at 10 µM.
1. O=C(NCc1ccc(Cl)cc1F)Nc1ccc2cc1OCCOCCNc1ccn3ncc-2c3n1 [compound 21]
2. O=C(NCc1ccc(Cl)cc1)Nc1ccc2cc1OCCOCCNc1ccn3ncc-2c3n1 [compound 19]

Response:
0.9
0.1
